- measurement.target: T1, recombinant extracellular domain of CD38 (human, UniProt P28907 43-300)
- T1 construct: also called CD38 extracellular domain; AtaGenix ATMP00140HU
- procedure.details: Biacore SPR
Field: pKd. Provide a value for each of the binders that follow.
Scale: negative log10 of molar concentration, which is what pKd denotes.

Enquiry: Using the record for FTL004-hu-13 (antibody, human IgG1, kappa, V domains shown, also called FLT004-hu-13; FTL004-hum-13) VH: EVQLVQSGAEVKKPGATVKISCKASGYTFTDYNVHWIQQAPGKGLEWIGYFYPRNGATHYNQKFTGRATLTADTSTDTAYMEISSLRSEDTAVYFCARGETPGTFPYWGQGTLVTVSS VL: DIVLTQSPASLAVSPGQRATITCRASESVDNFGITFMHWYQQKPGQPPKLLIYRASNLESGVPARFSGSGSRTDFTLTINPVEANDTANYYCQQSSKDPRTFGQGTKLEIKR , state its measured pKd.
Return: 8.56

Enquiry: Using the record for FTL004-hu-14 (antibody, human IgG1, kappa, V domains shown, also called FLT004-hu-14; FTL004-hum-14) VH: EVQLVQSGAEVKKPGATVKISCKASGYTFTDYNVHWIQQAPGKGLEWIGYFYPRNGATHYAEKFQGRVTLTADTSTDTAYMELSSLRSEDTAVYYCARGETPGTFPYWGQGTLVTVSS VL: DIVLTQSPASLAVSPGQRATITCRASESVDNFGITFMHWYQQKPGQPPKLLIYRASNLESGVPARFSGSGSRTDFTLTINPVEANDTANYYCQQSSKDPRTFGQGTKLEIKR , state its measured pKd.
Return: 7.65

Enquiry: Using the record for FTL004-hu-2 (antibody, human IgG1, kappa, V domains shown, also called FLT004-hu-2; FTL004-hum-2) VH: QVQLVQSGSELKKPGASVKVSCKASGYTFTDYNVHWIRQAPGQGLEWIGYFYPRNGATHYAQGFTGRAVLSADTSVSTAYLQISSLKAEDTAVYYCARGETPGTFPYWGQGTLVTVSS VL: DIVLTQSPASLAVSPGQRATITCRASESVDNFGITFMHWYQQKPGQPPKLLIYRASNLESGVPARFSGSGSRTDFTLTINPVEANDTANYYCQQSSKDPRTFGQGTKLEIKR , state its measured pKd.
Return: 8.08

Enquiry: Using the record for FTL004-hu-10 (antibody, human IgG1, kappa, V domains shown, also called FLT004-hu-10; FTL004-hum-10) VH: QVQLVQSGAEVKKPGASVKVSCKASGYTFTDYNVHWIRQAPGQGLEWIGYFYPRNGATHYAQKFQGRVTMTVDTSTSTAYMELSSLRSEDTAVYYCARGETPGTFPYWGQGTLVTVSS VL: EIVLTQSPATLSLSPGERATLSCRASESVDNFGITFMHWYQQKPGQAPRLLIYRASNLESGIPARFSGSGSRTDFTLTISSLEPEDFAVYYCQQSSKDPRTFGQGTKLEIKR , state its measured pKd.
Return: 7.83

Enquiry: Using the record for H2 antibody (antibody, V domains shown, Murine monoclonal antibody from a BALB/c hybridoma; also called H2 mAb; Hybridoma-2) VH: EVQLQESGAELVRSGASVKMSCKASGYTFTDYNVHWIKQTPGQGLEWIGYFYPRNGATHYNQKFTGKATLTADTSSSTAYIQISSLTSEDSAVYFCARGETPGTFPYWGQGTLVTVSA VL: DIVLTQSPASLTVSLGQRATISCRASESVDNFGITFMHWYQQKPGQPPKLLIYRASNLESGIPARFSGSGSRTDFTLTIDPVETDDVATYYCQQSSKDPRTFGGGTKLEIK , state its measured pKd.
Return: 8.69
